Test Name: soluble on expression in E. coli; label from the status in PepcDB or PDB records
Measurement Name: soluble on expression in E. coli

MYGTEQIISGTIIAGPEILPIEGYICVKNGIITEIGEERTNSKNIIAPCFVNAHTHLGDSVCKDPVLGKTSGFRVQRDLDSLVKPPDGLKHRILRETPYKTLVGHIKRSLLDMIDTGTCAFADFREGGFLGVAALNKALEGLELRSLIFGRPAEPDLPLQVVLSEVRRILLRSDGLGMSGANDLDMNLLQEITACTRERKKLFAIHAGEKNRSDIEKALSLEPDLLIHLTHAGKKDLDEIAQAKIPVVVCPRSNFVTGAGMAPIAEMLEAGIRVAAGTDNVMLNSVNMFAEMEFMSKIFSIDDRQVFKICTLNGSFVMGPDSMCSIEKGNKANLMILNGDSNNLAGIQDPVGGITKRARPDDILAVLHS; not soluble
MSLLRSLRVFLVARTGSYPAGSLLRQSPQPRHTFYAGPRLSASASSKELLMKLRRKTGYSFVNCKKALETCGGDLKQAEIWLHKEAQKEGWSKAAKLQGRKTKEGLIGLLQEGNTTVLVEVNCETDFVSRNLKFQLLVQQVALGTMMHCQTLKDQPSAYSKGFLNSSELSGLPAGPDREGSLKDQLALAIGKLGENMILKRAAWVKVPSGFYVGSYVHGAMQSPSLHKLVLGKYGALVICETSEQKTNLEDVGRRLGQHVVGMAPLSVGSLDDEPGGEAETKMLSQPYLLDPSITLGQYVQPQGVSVVDFVRFECGEGEEAAETE; soluble
SSLCERAASGSALLWPRVLLFGDSITQFSFQQGGWGSLLADRLVRKCDVLNRGFSGYNTRWAKIILPRLIRKGPGMENPVAVTIFFGANDSSLKDENPKQHVPLDEYSANLRDMVQYLRSVDVPRERVILITPPPLCEAAWEKECVLKGCKLNRLNSVVGEYANACLQVARDCGTDVLDLWTLMQKDSQDFSSYLSDGLHLSPMGNEFLFLNLCPLLDKKVSSLPWLLPYWKDVEEAKPELSLLGDGDY; soluble
MKKFSSLFRSFMHFQLTLVKPLTRRSRPIELGRLNCTEPVSSNFGFERGRPIDRYYINIFLSQNTNDVRGRVLEISDNGYTKRLGGKKVKQSDVLHAVEGNPKATIVSDITKADNIPSDSFDCIILTQTLQFIYDTKSAVRHLHRILKPNGVLLATMSGISQISRYDMDHWGEYWRFTTASAKQLFEEEFLPENIEVKAYGNVLSSTAFLYGLAVEDLKTEQLDYHDPNYQMLVTVRAVKADKQLEHHHHHH; not soluble
MGSDKIHHHHHHMVKLKDGFTGERALVLPRIIVDKMEEDPLTSMLHITDIGYYPKAKHHFRERKEPINQYVFIYCIDGAGSYRIGDQEYTVSANQYFILPAGVPHSYASNKSTPWTIYWIHFKGILAPFYAKDANRPMDIQSEQHSRISTRINLFEEIFNTLKNGYSNENLRYAFSMFHFYLGTLRYVQQYRNAGTNEAEDEGIVNVAIHYMKENMEKHLSLEEISTQIGYSPSHFSMLFKKQTGHSPLTYFNLLKMQQACLLLDTTDMKINQICYKIGIEDTYYFSRLFSKIMGMSPREYRKSKKG; not soluble

# batch: return soluble on expression in E. coli for each of the 5 sequences below
1. MSVKVIVTDMDGTFLNDAKTYNQPRFMAQYQELKKRGIKFVVASGNQYYQLISFFPELKDEISFVAENGALVYEHGKQLFHGELTRHESRIVIGELLKDKQLNFVACGLQSAYVSENAPEAFVALMAKHYHRLKPVKDYQEIDDVLFKFSLNLPDEQIPLVIDKLHIALDGIMKPVTSGFGFIDLIIPGLHKANGISRLLKRWDLSPQNVVAIGDSGNDAEMLKMARYSFAMGNAAENIKQIARYATDDNNHEGALNVIQAVLDNTSPFNS
2. MGSDKIHHHHHHMKFIHTSDWHIGRQLHNQSLLDDQAFVLEQIIALADEHKVDAVIVAGDIYDRSIPPANAVALLDDVLNRLVHDLGLQVIMIAGNHDGHERLGFAAKQMAASGLHIIGPLSADIHPITLSSSSGDVVFYPLPYAEPATVRQVFECEAASHEAAMTLLLEQVRQHDSQGLPKVVISHCFLDGGSESESERPLSIGGADKISPTLFTEFDYVALGHLHGPQYKGAEHVRYSGSILKYSFSEQHQHKSVTLVELSAQTPIKIRLLPLTSIRDVRILEGELATLLVQGKTDIKREDYLMVRLLDKHAILDAMGKLRAVYPNVLHLERTGLMAGQQQVTLSRDHIKKGEMDMFRDFFSQVSGESLTQAQQAVMDELLTKLHNEERQA
3. MSLKITNEMQTKAETKIHRTTKVGDPSFQQMVQSQTKQLNQQQFHQLVQQISKQGSKLAQYRSFRELVKFKRMVKSFLDKAVVQGYKLEKSHSFGLQGSRHLSIVKAVDEKLIQLAEDIMDEEKKTVDILGLIGEIKGLLINIYTEGHHHHHH
4. MGSDKIHHHHHHARRNILRQTWMSKANSEIVANGRMKPLFLVGLTPGEYKMKKMVMQEAKLYGDIIVVDMNDNYEELTYKSLAILLYGVSKAPRYQMIGKIDEDVMFFPDKLTELYDQGFIDATPLRIYGLKMQSGANIFRDKTHRWYVPESSYSCSKFPEYVSGMLYMVTWEAAQQIIKSTKYRDFIQVEDVFLTGILAEDLGISVKNLP
5. MSLERLRVAAYCRVSTDSEDQLNSYKSQVQYYTDMIKKNKEWVLADIYADEAITGTQVTKREDFQRMINDCMNGEIDMVITKSISRFARNTLDTLKYVRMLKERNIAVYFEDEKINTLTMDGELLLVVLSSVAQQEVENISANVKKGLKMKMKRGELVGFQGCLGYDYHPEDKTITVNQEEAEIVRYIFNRYVDGAGGSVIGQELENLGYKTKYGSSTWAPSTVIGIIKNEKYKGDILLGKTFTVDPISKRRLENMGEEDKFYMKDHHEPIISEEVFEKAQEILNRRNKNREGHHHHHH

Response:
["not soluble", "not soluble", "soluble", "not soluble", "soluble"]
